measure: pIC50
Scale: negative log10 of molar concentration, which is what pIC50 denotes.

Inquiry: Provide the documented pIC50 with GSK3β (Homo sapiens, UniProt P49841) as the system for COc1cc(F)ccc1C(=O)NC1CCCn2c1nc(-c1ccncn1)cc2=O (racemic)
Sequence (P49841 whole entry): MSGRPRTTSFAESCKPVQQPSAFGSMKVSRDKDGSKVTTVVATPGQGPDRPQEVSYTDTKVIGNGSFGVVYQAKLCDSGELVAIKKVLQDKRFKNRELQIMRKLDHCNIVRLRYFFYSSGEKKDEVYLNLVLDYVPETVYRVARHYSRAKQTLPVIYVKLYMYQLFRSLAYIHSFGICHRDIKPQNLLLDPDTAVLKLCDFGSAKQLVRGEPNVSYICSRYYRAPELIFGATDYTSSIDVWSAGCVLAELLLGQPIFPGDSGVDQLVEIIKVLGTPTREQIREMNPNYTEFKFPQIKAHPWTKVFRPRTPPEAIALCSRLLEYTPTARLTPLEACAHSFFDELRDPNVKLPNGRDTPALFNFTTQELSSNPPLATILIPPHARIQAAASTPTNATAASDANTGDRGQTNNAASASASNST
Reply text: 8.30
